Tested on: 996289-038-R-J1-PDC spheroid viability
assay text: Anticancer human tumor 996289-038-R-J1-PDC patient-derived colon adenocarcinoma cell line growth inhibition [PI3K]
run conditions: curve of first compound; second compound 0.00316 µM; spheroids with HUVEC and MSC
pIC50: −log10 of the molar value.

{"columns": ["compound", "pIC50"],
 "data": [
  ["CC(=O)c1c(C)c2cnc(Nc3ccc(N4CCNCC4)cn3)nc2n(C2CCCC2)c1=O + CC(Nc1ccc2c(c1)OCCn1cc(N3C(=O)OCC3C(F)F)nc1-2)C(N)=O", "< 7.00"],
  ["CCN1CCN(Cc2ccc(Nc3ncc(F)c(-c4cc(F)c5nc(C)n(C(C)C)c5c4)n3)nc2)CC1 + CC(Nc1ccc2c(c1)OCCn1cc(N3C(=O)OCC3C(F)F)nc1-2)C(N)=O", "< 6.00"],
  ["CC(Cn1ccc(-c2ccc(C#N)c(Cl)c2)n1)NC(=O)c1cc(C(C)O)[nH]n1 (stereo not drawn) + COc1c(OCCCN2CCOCC2)ccc2c3n(c(=NC(=O)c4cnc(N)nc4)nc12)CCN3", "< 5.00"]
]}

====

System: 996289-038-R-J1-PDC spheroid viability
assay text: Anticancer human tumor 996289-038-R-J1-PDC cell line growth inhibition [PI3K];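 also: spheroids exposed to compounds for seven days before viability read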;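 as to viability, T/C: luminescence used as a proxy for viable cell amount; percent viability relative to DMSO vehicle control as 100%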
run conditions: second compound 0.01 µM; first compound 0.316 µM; stronger effect = lower value; spheroids with HUVEC and MSC
From the text: Combinatorial screen of targeted agents with the PI3K inhibitors inavolisib, alpelisib, duvelisib, and copanlisib in multi-cell type tumor spheroids A high-throughput screen of multi-cell type tumor spheroids was designed to identify active combinations of targeted small molecules and PI3K pathway inhibitors. […] Compounds. […] If the clinical Cmax for an agent had not been determined, the highest concentration tested was 10 microM. […]

{"columns": ["molecule", "readout unit", "viability, T/C"],
 "data": [
  ["CC1(C)CCC(CN2CCN(c3ccc(C(=O)NS(=O)(=O)c4ccc(NCC5CCOCC5)c([N+](=O)[O-])c4)c(Oc4cnc5[nH]ccc5c4)c3)CC2)=C(c2ccc(Cl)cc2)C1 + CC(Nc1ccc2c(c1)OCCn1cc(N3C(=O)OCC3C(F)F)nc1-2)C(N)=O", "%", 87.4],
  ["CNC(=O)c1ccc(N2C(=S)N(c3ccc(C#N)c(C(F)(F)F)c3)C(=O)C2(C)C)cc1F + COc1c(OCCCN2CCOCC2)ccc2c3n(c(=NC(=O)c4cnc(N)nc4)nc12)CCN3", "%", 103],
  ["C[C@@H](NC(=O)c1ncnc(N)c1Cl)c1ncc(C(=O)Nc2cc(C(F)(F)F)c(Cl)cn2)s1 + CC(Nc1ccc2c(c1)OCCn1cc(N3C(=O)OCC3C(F)F)nc1-2)C(N)=O", "%", 107],
  ["CCCS(=O)(=O)Nc1ccc(F)c(C(=O)c2c[nH]c3ncc(-c4ccc(Cl)cc4)cc23)c1F + COc1c(OCCCN2CCOCC2)ccc2c3n(c(=NC(=O)c4cnc(N)nc4)nc12)CCN3", "%", 87.4],
  ["CNC(=O)c1ccc(N2C(=S)N(c3ccc(C#N)c(C(F)(F)F)c3)C(=O)C2(C)C)cc1F + CC(Nc1ccc2c(c1)OCCn1cc(N3C(=O)OCC3C(F)F)nc1-2)C(N)=O", "%", 100],
  ["Cn1nccc1Nc1nccc(-c2ccn(C(CO)c3ccc(Cl)c(F)c3)c(=O)c2)n1 (stereo unspecified) + CC(Nc1ccc2c(c1)OCCn1cc(N3C(=O)OCC3C(F)F)nc1-2)C(N)=O", "%", 105]
]}

These entries and their values trace back to PubChem BioAssay AID1963965.
